- TARGET UNDER TEST: ETB receptor (Rattus norvegicus)
- Sequence (P21451 27-442): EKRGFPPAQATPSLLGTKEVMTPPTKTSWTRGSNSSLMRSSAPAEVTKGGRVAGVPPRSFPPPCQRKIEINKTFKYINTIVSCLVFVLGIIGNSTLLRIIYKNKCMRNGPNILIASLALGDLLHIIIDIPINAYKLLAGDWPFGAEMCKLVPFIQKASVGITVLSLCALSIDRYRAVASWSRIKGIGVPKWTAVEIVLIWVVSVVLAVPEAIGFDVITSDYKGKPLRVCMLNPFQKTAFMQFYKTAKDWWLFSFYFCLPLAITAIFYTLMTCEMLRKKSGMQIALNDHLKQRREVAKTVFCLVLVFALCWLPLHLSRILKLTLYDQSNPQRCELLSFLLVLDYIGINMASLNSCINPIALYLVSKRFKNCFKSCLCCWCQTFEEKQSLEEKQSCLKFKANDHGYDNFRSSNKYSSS
pIC50: −log10 of the molar value.
QUANTITY NAME: pIC50

{"columns": ["RECORD SMILES", "RESULT"],
 "data": [
  ["COC(=O)C1=C(C)NC(C)=C(C(=O)OC(=O)C2=C(C)NC(C)=C(C(=O)OC)[C@@H]2c2cccc([N+](=O)[O-])c2)[C@@H]1c1cccc([N+](=O)[O-])c1", "~6.52"]
]}

---

- TARGET UNDER TEST: ETA receptor (Sus scrofa, UniProt Q29010)
- Sequence (Q29010 21-427): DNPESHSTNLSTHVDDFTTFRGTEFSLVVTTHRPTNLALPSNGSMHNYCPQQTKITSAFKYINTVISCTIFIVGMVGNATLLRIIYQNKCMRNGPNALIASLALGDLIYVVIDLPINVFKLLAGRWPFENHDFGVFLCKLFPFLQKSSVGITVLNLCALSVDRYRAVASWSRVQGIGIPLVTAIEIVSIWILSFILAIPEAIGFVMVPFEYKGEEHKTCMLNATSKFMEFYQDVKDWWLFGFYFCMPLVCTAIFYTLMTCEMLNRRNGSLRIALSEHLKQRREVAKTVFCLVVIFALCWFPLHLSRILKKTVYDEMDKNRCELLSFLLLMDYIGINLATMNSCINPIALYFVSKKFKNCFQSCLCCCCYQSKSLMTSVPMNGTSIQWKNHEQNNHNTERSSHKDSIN
QUANTITY NAME: IC50

{"columns": ["COMPOUND", "RESULT"],
 "data": [
  ["COC(=O)C1=C(C)NC(C)=C(C(=O)OC(=O)C2=C(C)NC(C)=C(C(=O)OC)[C@@H]2c2cccc([N+](=O)[O-])c2)[C@@H]1c1cccc([N+](=O)[O-])c1 [Example 1]", "~0.016 µM"]
]}
